Biological target: Nucleoprotein (Lymphocytic choriomeningitis virus (strain Armstrong))
Experiment: qHTS for Inhibitors of the Functional Ribonucleoprotein Complex (vRNP) of Lymphocytic Choriomeningitis Arenaviruses (LCMV): LCMV Primary Screen - GLuc reporter signal (AID 1347086); further: on the % scale 0 is the no-effect control and ±100 the full control effect; nearly all actives have a fitted effect of over 70% in size
Settings: LCMV minigenome vRNP cell assay, Gaussia luciferase reporter; series mostly up to 57.5 µM
Inconclusive results are not listed. The source made the active and inactive calls. The call rests on the fitted dose curve.
readoutKind: activity change, negative = inhibition

## Task Notebook entry, Nucleoprotein (Lymphocytic choriomeningitis virus (strain Armstrong)) assay: activity change, negative = inhibition of O=C(O)CCC[C@H](O)\C=C/C=C/C=C/[C@H](O)C/C=C\CCCCCO = ?
## Result -1.08% [at 0.757 µM] (inactive)

## Task Notebook entry, Nucleoprotein (Lymphocytic choriomeningitis virus (strain Armstrong)) assay: activity change, negative = inhibition of CCCCC/C=C\C[C@@H]1O[C@H]1C(O)/C=C\C/C=C\CCCC(=O)O (stereo partly drawn) = ?
## Result 17.5% [at 0.757 µM] (inactive)

## Task Notebook entry, Nucleoprotein (Lymphocytic choriomeningitis virus (strain Armstrong)) assay: activity change, negative = inhibition of CCCCC/C=C\C[C@@H]1O[C@H]1/C=C/C(O)C/C=C\CCCC(=O)O (stereo partly drawn) = ?
## Result 7.04% [at 0.757 µM] (inactive)

----------
Assay: qHTS for Inhibitors of the Functional Ribonucleoprotein Complex (vRNP) of Lassa (LASV) Arenavirus: LASV Primary Screen - GLuc reporter signal (AID 1347082); further: nearly all actives have a fitted effect of over 60% in size
Settings: LASV minigenome vRNP, Gaussia luciferase reporter; series mostly up to 57.5 µM
Results filed as inconclusive are left out. Calls of active or inactive are those of the source. The call rests on the fitted dose curve; tested in HEK293 reporter line.
Tick one outcome: 1.0 = active, 0.0 = inactive

## Task For COc1cc(C(O)C(=O)O)ccc1O (centres undefined) , which call appears in the assay record?
## Result 0.0

## Task For CNC(=O)c1ccccc1Sc1ccc2c(C=Cc3ccccn3)n[nH]c2c1 , which call appears in the assay record?
## Result 0.0

## Task For Clc1ccc(COC(Cn2ccnc2)c2ccc(Cl)cc2Cl)c(Cl)c1 (centres undefined) , which call appears in the assay record?
## Result 0.0

## Task For CC1=CC2=C(C=O)C(=O)C(C)(O)C(O)C2=CO1 (centres undefined) , which call appears in the assay record?
## Result 0.0

## Task For OC[C@H]1O[C@@H](OC[C@H]2O[C@@H](O)[C@H](O)[C@@H](O)[C@@H]2O)[C@H](O)[C@@H](O)[C@@H]1O , which call appears in the assay record?
## Result 0.0

## Task For Cc1ccc(NC(=O)C2(c3ccc4c(c3)OC(F)(F)O4)CC2)nc1-c1cccc(C(=O)O)c1 , which call appears in the assay record?
## Result 1.0

## Task For O=C(O)C1=NC(C(=O)O)CC(C=CN2c3cc(O)c(OC4OC(CO)C(O)C(O)C4O)cc3CC2C(=O)O)=C1 (centres undefined) , which call appears in the assay record?
## Result 0.0

## Task For c1ccc2c(c1)CC(N1CCN(c3cccc4c3OCCO4)CC1)C2 , which call appears in the assay record?
## Result 0.0

## Task For CCN1C[C@]2(C)CC[C@H](OC)[C@@]34[C@H]1C1(OCO[C@@]15C[C@H](OC)C1C[C@]3(O)C5[C@H]1OC)[C@@H](O)[C@H]24 , which call appears in the assay record?
## Result 0.0

## Task For C=CC(C)(CCC=C(C)C)OC=O (centres undefined) , which call appears in the assay record?
## Result 0.0

## Task For Cc1ccccc1C(C(=O)NC1CCCCC1)N(C(=O)Cn1ccnc1C)c1cccc(F)c1 (centres undefined) , which call appears in the assay record?
## Result 0.0

## Task For COc1cc2c(c(OC)c1OC)-c1c(cc(OC)c(OC)c1OC)CC(C)C(C)C2 (centres undefined) , which call appears in the assay record?
## Result 0.0

## Task For NCCCCC(=O)O , which call appears in the assay record?
## Result 0.0

## Task For COc1cc(OC)c2c(=O)cc(-c3ccccc3)oc2c1 , which call appears in the assay record?
## Result 0.0

## Task For Cn1cc(-c2ccncc2)c(-c2ccc(OCc3ccc4ccccc4n3)cc2)n1 , which call appears in the assay record?
## Result 1.0

## Task For CC(=O)N(O)CCCP(=O)(O)O , which call appears in the assay record?
## Result 0.0

## Task For CC(=O)O[C@@]12CO[C@@H]1C[C@H](O)[C@@]1(C)C(=O)[C@H](O)C3=C(C)[C@@H](O)C[C@@](O)([C@@H](OC(=O)c4ccccc4)C12)C3(C)C (some centres undefined) , which call appears in the assay record?
## Result 0.0

## Task For COC(=O)C1=CO[C@@H](O[C@@H]2O[C@H](CO)[C@@H](O)[C@H](O)[C@H]2O)C2C1CC(O)O[C@H]2C (some centres undefined) , which call appears in the assay record?
## Result 0.0

## Task For CC(C)=CCC[C@](C)(O)C1CC[C@]2(C)C1[C@H](O)CC1[C@@]3(C)CC[C@H](O[C@@H]4O[C@H](CO)[C@@H](O)[C@H](O)[C@H]4O[C@@H]4O[C@H](CO)[C@@H](O)[C@H](O)[C@H]4O)C(C)(C)C3CC[C@]12C (some centres undefined) , which call appears in the assay record?
## Result 0.0

## Task For Cc1ccc(CN2CCNCC2)cc1NC(=O)CNc1ccc(F)c(F)c1 , which call appears in the assay record?
## Result 0.0

## Task For CC(=O)O[C@H]1C[C@@H]2CC[C@@]1(C)C2(C)C , which call appears in the assay record?
## Result 0.0

## Task For COc1cc2c(cc1OC)OC(C)(C)C=C2 , which call appears in the assay record?
## Result 0.0

## Task For COc1cc2c(c(OC)c1OC)-c1c(cc(OC)c(OC)c1OC)C[C@](C)(O)[C@@H](C)C2 , which call appears in the assay record?
## Result 0.0

## Task For CC(C)[C@H](O)C(=O)N[C@@H](C)C(=O)N[C@@H]1C(=O)N(C)CCc2ccccc21 , which call appears in the assay record?
## Result 0.0

## Task For CC1(C)CCC[C@@]2(C)CC=C(C(=O)O)[C@@H]3C[C@]312 , which call appears in the assay record?
## Result 0.0

## Task For CNCCO , which call appears in the assay record?
## Result 0.0

## Task For CCCCCCCCCCCC(=O)OCC(O)CO (centres undefined) , which call appears in the assay record?
## Result 0.0

## Task For CC(C)(O)[C@H]1CC[C@@](C)([C@H]2[C@@H](O)C[C@@]3(C)[C@@H]4C[C@H](O[C@@H]5O[C@H](CO)[C@@H](O)[C@H](O)[C@@H]5O)[C@H]5C(C)(C)[C@@H](O[C@@H]6OC[C@@H](O)[C@H](O)[C@@H]6O)CC[C@@]56C[C@@]46CC[C@]23C)O1 , which call appears in the assay record?
## Result 0.0

## Task For C[Se]CC[C@H](N)C(=O)O , which call appears in the assay record?
## Result 0.0

## Task For CC1=CC2OC3CC4OC(=O)C=CC=CC(C(C)O)OCC(O)C(C)CC(=O)OCC2(CC1O)C4(C)C31CO1 (centres undefined) , which call appears in the assay record?
## Result 0.0

## Task For Cc1ccccc1O , which call appears in the assay record?
## Result 0.0

## Task For Cc1cnc(CNC(=O)c2c(=O)c3ccc(N4CCCN(C)CC4)nc3n3c2sc2ccccc23)cn1 , which call appears in the assay record?
## Result 0.0

## Task For COc1ccnc2[nH]cc(C(=O)C(=O)N3CCN(C(=O)c4ccccc4)C[C@@H]3C)c12 , which call appears in the assay record?
## Result 0.0

## Task For C=C(CC1CC(O)[C@]2(C)OC3CC4OC5C[C@]6(C)O[C@]7(C)CCC8OC9C[C@]%10(C)OC%11C(C)=CC(=O)OC%11CC%10OC9C[C@@H](C)C8OC7CC6O[C@]5(C)C/C=C\C4OC3CC2O1)C(=O)O (some centres undefined) , which call appears in the assay record?
## Result 0.0

----------
Test system: SKOV3
Assay: Primary qHTS to identify gynecologic anti-cancer compounds using libraries of approved drugs and bioactive compounds (AID 1345084); further: nearly all actives have a fitted effect of over 55% in size
Details: Gynecologic cancer cell panel viability, ATPlite luminescence, 48 h; series mostly up to 57.5 µM
Records with an inconclusive call do not appear. The source made the active and inactive calls. Calls follow the shape of the dose curve; as a rule, active = well fitted cell-killing curve with a large enough effect; inconclusive = small, poorly fitted or top-dose-only effect, or effect the other way; inactive = flat fitted curve, though single readings scatter.
Tick one outcome: true (1) for active, false (0) for inactive

## Task For C[C@H]1O[C@@H](O[C@H]2CC[C@]3(C=O)C4CC[C@]5(C)[C@@H](C6=CC(=O)OC6)CC[C@]5(O)[C@@H]4CC[C@]3(O)C2)C[C@@H](O)[C@@H]1O (some centres undefined) , which call appears in the assay record?
## Result true (1)

## Task For CCOC(=O)C1(CCc2ccccc2)CCN(Cc2ccc(NC(C)=O)cc2)CC1 , which call appears in the assay record?
## Result false (0)

## Task For c1ccc(C2(c3ccccc3)OC[C@@H]([C@H]3CCCCN3)O2)cc1 , which call appears in the assay record?
## Result false (0)

## Task For CN1CN(c2ccccc2)C2(CCN(CCCC(=O)c3ccc(F)cc3)CC2)C1=O , which call appears in the assay record?
## Result false (0)

## Task For CC(=O)O[C@H]1C[C@@H](C)O[C@H]2O[C@@H]3CC4CC[C@@H]5C(CC[C@]6(C)[C@@H](C7=CC(=O)OC7)CC[C@]56O)[C@@]4(C=O)C[C@H]3O[C@]21O (some centres undefined) , which call appears in the assay record?
## Result true (1)

## Task For CN[C@@H]1C[C@H]2O[C@@](C)([C@@H]1OC)n1c3ccccc3c3c4c(c5c6ccccc6n2c5c31)C(=O)NC4 , which call appears in the assay record?
## Result true (1)

## Task For Cc1sc2c(c1C)C(c1ccc(Cl)cc1)=NC(CC(=O)Nc1ccc(O)cc1)c1nnc(C)n1-2 (centres undefined) , which call appears in the assay record?
## Result true (1)

## Task For COC1(C[S@@](=O)c2ccccc2)CCN(CCc2c[nH]c3ccc(F)cc23)CC1 , which call appears in the assay record?
## Result false (0)

## Task For C=C1C(=O)O[C@@H]2[C@H]3C(=C)[C@@H](O)C[C@H]3C(=C)C[C@@H](O)[C@@H]12 , which call appears in the assay record?
## Result false (0)
